Biological target: Peptidyl-prolyl cis-trans isomerase A (Homo sapiens, UniProt P62937)
Sequence (P62937 whole entry): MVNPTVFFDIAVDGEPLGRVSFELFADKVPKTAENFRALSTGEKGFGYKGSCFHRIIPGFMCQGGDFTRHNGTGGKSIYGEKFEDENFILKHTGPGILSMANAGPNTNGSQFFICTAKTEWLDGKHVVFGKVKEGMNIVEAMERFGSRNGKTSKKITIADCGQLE
Assay: Inhibition of fluorescent cyclosporin A binding to human CypA by TR-FRET assay
Reported endpoint: Kd (µM)

Quote Kd with test system Peptidyl-prolyl cis-trans isomerase A (Homo sapiens, UniProt P62937) for "C[C@@]1(N)COCCCCOC[C@@H](C(=O)O)NC(=O)[C@@H]2CCCN2C(=O)CNC1=O"
127

[I] C[C@@]1(NCC2CCCCC2)COCCCCOC[C@@H](C(=O)O)NC(=O)[C@@H]2CCCN2C(=O)CNC1=O
[II] C[C@@]1(NCCc2ccccc2)COCCCCOC[C@@H](C(=O)O)NC(=O)[C@@H]2CCCN2C(=O)CNC1=O.Cl
[III] C[C@@]1(NCC2CCCCCCC2)COCCCCOC[C@@H](C(=O)O)NC(=O)[C@@H]2CCCN2C(=O)CNC1=O
[IV] C[C@@]1(NC(=O)C2CCC2)COCCCCOC[C@@H](C(=O)O)NC(=O)[C@@H]2CCCN2C(=O)CNC1=O
Let's sort these by Kd, smallest first. Go ahead? Please reply with the labels ordered as requested. Many thanks.
III, II, I, IV
(III: 5.4 µM, II: 10.5 µM, I: 32 µM, IV: 139 µM)

----------
Test: Intrinsic clearance in human liver microsomes
Format: ADME
Conditions: read-out: CLH
Reported endpoint: microsomal CLint

// Input: "C[C@@]1(NCCc2ccccc2)COCCCCOC[C@@H](C(=O)O)NC(=O)[C@@H]2CCCN2C(=O)CNC1=O.Cl" . Output its microsomal CLint only.
< 3 µL/min/mg

----------
Molecular target: Peptidyl-prolyl cis-trans isomerase A (Homo sapiens)
Assay: Binding affinity to CypA (unknown origin) by fluorescence titration method
Numbered stars: 1 amine (or outer) side, 2 acyl side, 3 side chain; on linkers, the order of the positions; unused ones are H or OH. Peptide text beside a SMILES is read from it. * marks the point of attachment. pNA = O=[N+]([O-])c1ccc(N*)cc1; Suc = O=C(CCC(=O)[*:2])[*:1]
Reported endpoint: pKd
In simple prose, pKd is minus the logarithm base ten of a concentration in moles per litre.

// Input: C[C@H](NC(=O)CCC(=O)O)C(=O)NCC(=O)N1CCC[C@H]1C(=O)N[C@@H](Cc1ccccc1)C(=O)Nc1ccc([N+](=O)[O-])cc1 (Suc-AGPF-pNA) . Output its pKd only.
3.87

----------
Test: Apparent permeability across apical to basolateral side in human Caco2 cells
Type: ADME, cell-based
Details: Caco-2
Reported endpoint: Papp A→B (×10⁻⁶ cm/s)
Return type: number; implicit unit ×10⁻⁶ cm/s.

// Input: "C[C@@]1(NCCc2ccccc2)COCCCCOC[C@@H](C(=O)O)NC(=O)[C@@H]2CCCN2C(=O)CNC1=O.Cl" . Output its Papp A→B only.
0.1

----------
Test: Aqueous solubility of the compound
Format: physicochemical
Details: buffer
Reported endpoint: solubility

// Input: "C[C@@]1(NCCc2ccccc2)COCCCCOC[C@@H](C(=O)O)NC(=O)[C@@H]2CCCN2C(=O)CNC1=O.Cl" . Output its solubility only.
> 1000 µM
